Tested on: Escherichia coli TOP10
Assay: shrunken log2 fold change of peptide-encoding DNA abundance (4.5 h post-induction vs induction); higher = less antimicrobial activity (less host growth inhibition)
Conditions: time post-induction: 4.5 h; library: site-saturation at positions 5, 18, 19, 20
Measured shrunken log2 fold change, listed per entry.
Keep it simple and answer with nothing but the number.

Reference set (10 entries):
Recorded shrunken log2 fold change of `RRIRGRPPRLPRPRPRPDDWPRP` , please.
1.5

Recorded shrunken log2 fold change of `RRIRPRPPRLPRPRPRPQYIPRP` , please.
-0.457

Recorded shrunken log2 fold change of `RRIRTRPPRLPRPRPRPWFYPRP` , please.
-0.54

Recorded shrunken log2 fold change of `RRIRARPPRLPRPRPRPDIIPRP` , please.
0.363

Recorded shrunken log2 fold change of `RRIRHRPPRLPRPRPRPIEPPRP` , please.
-0.133

Recorded shrunken log2 fold change of `RRIRRRPPRLPRPRPRPRLRPRP` , please.
0.848

Recorded shrunken log2 fold change of `RRIRNRPPRLPRPRPRPVITPRP` , please.
-0.662

Recorded shrunken log2 fold change of `RRIRFRPPRLPRPRPRPAVWPRP` , please.
0.402

Recorded shrunken log2 fold change of `RRIRSRPPRLPRPRPRPPCQPRP` , please.
-0.0943

Recorded shrunken log2 fold change of `RRIRHRPPRLPRPRPRPGHRPRP` , please.
-0.0928

Others:
Recorded shrunken log2 fold change of `RRIRPRPPRLPRPRPRPYNKPRP` , please.
-1.16

Recorded shrunken log2 fold change of `RRIRTRPPRLPRPRPRPQQSPRP` , please.
-0.0133

Recorded shrunken log2 fold change of `RRIRLRPPRLPRPRPRPIYHPRP` , please.
-0.6

Recorded shrunken log2 fold change of `RRIRVRPPRLPRPRPRPQHYPRP` , please.
-0.718

Recorded shrunken log2 fold change of `RRIRARPPRLPRPRPRPNMPPRP` , please.
-0.0377

* * *

Tested on: Escherichia coli TOP10
Test: shrunken log2 fold change of peptide-encoding DNA abundance (4.5 h post-induction vs induction); higher = less antimicrobial activity (less host growth inhibition)
Details: time post-induction: 4.5 h; library: site-saturation at positions 5, 18, 19, 20
Measured shrunken log2 fold change, listed per entry.

Request body: readout shrunken log2 fold change, system Escherichia coli TOP10, query `RRIRSRPPRLPRPRPRPVMVPRP` . Return the value.
-0.31

Others:
Request body: readout shrunken log2 fold change, system Escherichia coli TOP10, query `RRIRWRPPRLPRPRPRPFDCPRP` . Return the value.
-0.0389

Request body: readout shrunken log2 fold change, system Escherichia coli TOP10, query `RRIRWRPPRLPRPRPRPTFIPRP` . Return the value.
-0.417

Request body: readout shrunken log2 fold change, system Escherichia coli TOP10, query `RRIRQRPPRLPRPRPRPHRIPRP` . Return the value.
-0.0425

Request body: readout shrunken log2 fold change, system Escherichia coli TOP10, query `RRIRPRPPRLPRPRPRPIKRPRP` . Return the value.
-0.125

Request body: readout shrunken log2 fold change, system Escherichia coli TOP10, query `RRIRGRPPRLPRPRPRPAYWPRP` . Return the value.
-0.0674

Request body: readout shrunken log2 fold change, system Escherichia coli TOP10, query `RRIRQRPPRLPRPRPRPCCCPRP` . Return the value.
0.0589

Request body: readout shrunken log2 fold change, system Escherichia coli TOP10, query `RRIRMRPPRLPRPRPRPLHPPRP` . Return the value.
0.439

Request body: readout shrunken log2 fold change, system Escherichia coli TOP10, query `RRIRTRPPRLPRPRPRPKQHPRP` . Return the value.
0.119

Request body: readout shrunken log2 fold change, system Escherichia coli TOP10, query `RRIRHRPPRLPRPRPRPRRKPRP` . Return the value.
0.0896

Request body: readout shrunken log2 fold change, system Escherichia coli TOP10, query `RRIRERPPRLPRPRPRPNNCPRP` . Return the value.
-0.24

Request body: readout shrunken log2 fold change, system Escherichia coli TOP10, query `RRIRIRPPRLPRPRPRPSKFPRP` . Return the value.
-0.245

* * *

System: Escherichia coli TOP10
Experiment: shrunken log2 fold change of peptide-encoding DNA abundance (4.5 h post-induction vs induction); higher = less antimicrobial activity (less host growth inhibition)
Conditions: time post-induction: 4.5 h; library: site-saturation at positions 5, 18, 19, 20
Binary classification by shrunken log2 fold change, with 0.2 as an inclusive lower bound for class 1; all other cases are class 0.

shrunken log2 fold change >= 0.2 for `RRIRKRPPRLPRPRPRPCSEPRP` ?
class 1

Others:
shrunken log2 fold change >= 0.2 for `RRIRKRPPRLPRPRPRPTVKPRP` ?
class 0

shrunken log2 fold change >= 0.2 for `RRIRTRPPRLPRPRPRPPRYPRP` ?
class 0

shrunken log2 fold change >= 0.2 for `RRIRKRPPRLPRPRPRPIRTPRP` ?
class 1

shrunken log2 fold change >= 0.2 for `RRIRHRPPRLPRPRPRPRHLPRP` ?
class 0

shrunken log2 fold change >= 0.2 for `RRIRGRPPRLPRPRPRPESPPRP` ?
class 1

shrunken log2 fold change >= 0.2 for `RRIRERPPRLPRPRPRPFTQPRP` ?
class 0

shrunken log2 fold change >= 0.2 for `RRIRLRPPRLPRPRPRPMWPPRP` ?
class 0

* * *

System: Escherichia coli TOP10
Experiment: shrunken log2 fold change of peptide-encoding DNA abundance (4.5 h post-induction vs induction); higher = less antimicrobial activity (less host growth inhibition)
Conditions: time post-induction: 4.5 h; library: site-saturation at positions 5, 18, 19, 20
observed-property: shrunken log2 fold change
Keep it simple and answer with nothing but the number.

Reference set (5 entries):
Recorded shrunken log2 fold change of `RRIRDRPPRLPRPRPRPVLTPRP` , please.
0.31

Recorded shrunken log2 fold change of `RRIRHRPPRLPRPRPRPGFNPRP` , please.
-0.0117

Recorded shrunken log2 fold change of `RRIRFRPPRLPRPRPRPYIRPRP` , please.
-0.755

Recorded shrunken log2 fold change of `RRIRCRPPRLPRPRPRPVDPPRP` , please.
0.227

Recorded shrunken log2 fold change of `RRIRARPPRLPRPRPRPTWFPRP` , please.
0.225

Others:
Recorded shrunken log2 fold change of `RRIRPRPPRLPRPRPRPQHDPRP` , please.
-0.176

Recorded shrunken log2 fold change of `RRIRVRPPRLPRPRPRPGYRPRP` , please.
-0.203

* * *

System: Escherichia coli TOP10
Assay: shrunken log2 fold change of peptide-encoding DNA abundance (4.5 h post-induction vs induction); higher = less antimicrobial activity (less host growth inhibition)
Details: time post-induction: 4.5 h; library: site-saturation at positions 5, 18, 19, 20
Measured shrunken log2 fold change, listed per entry.
Keep it simple and answer with nothing but the number.

Reference set (3 entries):
Recorded shrunken log2 fold change of `RRIRVRPPRLPRPRPRPGPLPRP` , please.
0.0392

Recorded shrunken log2 fold change of `RRIRRRPPRLPRPRPRPQWHPRP` , please.
0.181

Recorded shrunken log2 fold change of `RRIRPRPPRLPRPRPRPWDYPRP` , please.
-0.19

Others:
Recorded shrunken log2 fold change of `RRIRQRPPRLPRPRPRPCDAPRP` , please.
-0.027

Recorded shrunken log2 fold change of `RRIRHRPPRLPRPRPRPWAQPRP` , please.
0.0333

Recorded shrunken log2 fold change of `RRIRCRPPRLPRPRPRPGHFPRP` , please.
-0.217

Recorded shrunken log2 fold change of `RRIRFRPPRLPRPRPRPFEEPRP` , please.
-0.119

Recorded shrunken log2 fold change of `RRIRRRPPRLPRPRPRPMENPRP` , please.
0.113

Recorded shrunken log2 fold change of `RRIRCRPPRLPRPRPRPHYIPRP` , please.
-0.0818

Recorded shrunken log2 fold change of `RRIRIRPPRLPRPRPRPWHPPRP` , please.
-0.383

Recorded shrunken log2 fold change of `RRIRKRPPRLPRPRPRPGGDPRP` , please.
0.16

* * *

System: Escherichia coli TOP10;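 also: peptides expressed intracellularly from a pBAD plasmid library in pooled LB shake-flask culture, induced with 0.3% L-arabinose, DNA abundance read by NGS, three biological replicates, DESeq2 with apeglm shrinkage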
Assay: shrunken log2 fold change of peptide-encoding DNA abundance (4.5 h post-induction vs induction); higher = less antimicrobial activity (less host growth inhibition)
Details: time post-induction: 4.5 h; library: site-saturation at positions 5, 18, 19, 20
Measured shrunken log2 fold change, listed per entry.
Keep it simple and answer with nothing but the number.

Recorded shrunken log2 fold change of `RRIRHRPPRLPRPRPRPISLPRP` , please.
-0.234

Recorded shrunken log2 fold change of `RRIRNRPPRLPRPRPRPVEFPRP` , please.
-0.00441

Recorded shrunken log2 fold change of `RRIRKRPPRLPRPRPRPYMLPRP` , please.
-0.579

Recorded shrunken log2 fold change of `RRIRNRPPRLPRPRPRPQPAPRP` , please.
0.0618

Recorded shrunken log2 fold change of `RRIRNRPPRLPRPRPRPYYRPRP` , please.
0.0545

Others:
Recorded shrunken log2 fold change of `RRIRIRPPRLPRPRPRPWEVPRP` , please.
-0.00884

Recorded shrunken log2 fold change of `RRIRTRPPRLPRPRPRPTLKPRP` , please.
0.00476

Recorded shrunken log2 fold change of `RRIRWRPPRLPRPRPRPRCAPRP` , please.
0.586

Recorded shrunken log2 fold change of `RRIRMRPPRLPRPRPRPIEHPRP` , please.
-0.0129

Recorded shrunken log2 fold change of `RRIRERPPRLPRPRPRPKSSPRP` , please.
-0.0505

Recorded shrunken log2 fold change of `RRIRARPPRLPRPRPRPAHYPRP` , please.
0.095

Recorded shrunken log2 fold change of `RRIRMRPPRLPRPRPRPGFKPRP` , please.
0.46

Recorded shrunken log2 fold change of `RRIRTRPPRLPRPRPRPTAVPRP` , please.
-0.133

Recorded shrunken log2 fold change of `RRIRQRPPRLPRPRPRPNFVPRP` , please.
-0.0869

Recorded shrunken log2 fold change of `RRIRGRPPRLPRPRPRPEECPRP` , please.
0.0881
